meta.source: BindingDB's records for doi:10.1016/j.bmcl.2006.05.060

Experiment: Displacement of radiolabeled NalBzOH from kappa3 opioid receptor in Hartley guinea pig brain
pKi: −log10 of the molar value.
PROPERTY_NAME: pKi

| COMPOUND | PROPERTY_NAME | COMPARATOR | OBSERVED_RESULT |
| --- | --- | --- | --- |
| CSCC[C@H](NC(=O)[C@H](Cc1ccccc1)NC(=O)CNC(=O)CNC(=O)[C@@H](N)Cc1ccc(O)cc1)C(=O)O | pKi | = | 6.56 |
| C[C@@H](NC(=O)[C@@H](N)Cc1ccc(O)cc1)C(=O)NCC(=O)N(C)[C@@H](Cc1ccccc1)C(=O)NCCO | pKi | = | 7.57 |
| C=CCN1CCC23c4c5ccc(O)c4O[C@@H]2C(=NNC(=O)c2ccccc2)CCC3(O)C1C5 (some centres undefined) | pKi | = | 9.52 |
| CN1CC[C@]23c4c5ccc(OC(=O)c6ccccc6)c4O[C@H]2[C@@H](OS(=O)(=O)O)C=C[C@H]3[C@H]1C5 [M3B6S] | pKi | = | 6.29 |
| CC(=O)Oc1ccc2c3c1O[C@H]1[C@@H](OS(=O)(=O)[O-])C=C[C@H]4[C@@H](C2)[N+](C)(C)CC[C@@]341 [MM3A6S] | pKi | = | 6.40 |
| CC(C)C(=O)Oc1ccc2c3c1O[C@H]1[C@@H](OS(=O)(=O)O)C=C[C@H]4[C@@H](C2)N(C)CC[C@@]341 [M3IBu6S] | pKi | = | 6.58 |
| C[N+]1(C)CC[C@]23c4c5ccc(OC(=O)c6ccccc6)c4O[C@H]2[C@@H](OS(=O)(=O)[O-])C=C[C@H]3[C@H]1C5 [MM3B6S] | pKi | < | 5.00 |
| CN1CC[C@]23c4c5ccc(OC(=O)C(C)(C)C)c4O[C@H]2[C@@H](OS(=O)(=O)O)C=C[C@H]3[C@H]1C5 [M3P6S] | pKi | = | 7.96 |
| CCC(=O)Oc1ccc2c3c1O[C@H]1[C@@H](OS(=O)(=O)O)C=C[C@H]4[C@@H](C2)N(C)CC[C@@]341 [M3Pr6S] | pKi | = | 7.70 |

====

Consider the following molecules and their measured Ki readings.
Experiment: Displacement of radiolabeled NalBzOH from kappa3 opioid receptor in Hartley guinea pig brain
PROPERTY_NAME: Ki (nM)

| SMILES_TEXT | PROPERTY_NAME | OBSERVED_RESULT |
| --- | --- | --- |
| COc1ccc2c3c1O[C@H]1[C@@H](OS(=O)(=O)O)C=C[C@H]4[C@@H](C2)N(C)CC[C@@]341 | Ki | 455 |
| COc1ccc2c3c1O[C@H]1[C@@H](OS(=O)(=O)O)CC[C@H]4[C@@H](C2)N(C)CC[C@@]341 | Ki | 760 |
| CN1CC[C@]23c4c5ccc(O)c4O[C@H]2[C@@H](OS(=O)(=O)O)C=C[C@H]3[C@H]1C5 | Ki | 6.3 |
| CC1(C)SSC(C)(C)[C@@H](NC(=O)[C@@H](N)Cc2ccc(O)cc2)C(=O)NCC(=O)N[C@@H](Cc2ccc(Cl)cc2)C(=O)N[C@H]1C(=O)O | Ki | 1030 |
| CN1CC[C@]23c4c5ccc(OS(=O)(=O)O)c4O[C@H]2[C@@H](O)C=C[C@H]3[C@H]1C5 | Ki | 1690 |
| CN1CC[C@]23c4c5ccc(O)c4O[C@H]2[C@@H](OS(=O)(=O)O)CC[C@H]3[C@H]1C5 | Ki | 7 |
| CC(=O)Oc1ccc2c3c1O[C@H]1[C@@H](OS(=O)(=O)O)C=C[C@H]4[C@@H](C2)N(C)CC[C@@]341 | Ki | 5.5 |

====

Assay: Displacement of radiolabeled DPDPE-Cl from delta opioid receptor in Hartley guinea pig brain
pKi: −log10 of the molar value.

| SMILES_TEXT | pKi |
| --- | --- |
| COc1ccc2c3c1O[C@H]1[C@@H](OS(=O)(=O)O)C=C[C@H]4[C@@H](C2)N(C)CC[C@@]341 | 6.38 |
| CN1CC[C@]23c4c5ccc(OC(=O)C(C)(C)C)c4O[C@H]2[C@@H](OS(=O)(=O)O)C=C[C@H]3[C@H]1C5 | 7.82 |
| CCC(=O)Oc1ccc2c3c1O[C@H]1[C@@H](OS(=O)(=O)O)C=C[C@H]4[C@@H](C2)N(C)CC[C@@]341 | 7.40 |
| CN1CC[C@]23c4c5ccc(OC(=O)c6ccccc6)c4O[C@H]2[C@@H](OS(=O)(=O)O)C=C[C@H]3[C@H]1C5 | 6.22 |
| CN1CC[C@]23c4c5ccc(O)c4O[C@H]2[C@@H](OS(=O)(=O)O)CC[C@H]3[C@H]1C5 | 7.72 |
| CN1CC[C@]23c4c5ccc(OC(=O)c6ccccc6)c4O[C@H]2[C@@H](OS(=O)(=O)O)CC[C@H]3[C@H]1C5 | 5.80 |
| CN1CC[C@]23c4c5ccc(O)c4O[C@H]2[C@@H](OS(=O)(=O)O)C=C[C@H]3[C@H]1C5 | 7.74 |

====

List of Ki values.
Experiment: Displacement of radiolabeled DPDPE-Cl from delta opioid receptor in Hartley guinea pig brain
PROPERTY_NAME: Ki (nM)

| SMILES_TEXT | COMPARATOR | OBSERVED_RESULT |
| --- | --- | --- |
| CC(=O)Oc1ccc2c3c1O[C@H]1[C@@H](OS(=O)(=O)O)C=C[C@H]4[C@@H](C2)N(C)CC[C@@]341 | = | 154 |
| CN1CC[C@]23c4c5ccc(OS(=O)(=O)O)c4O[C@H]2[C@@H](O)C=C[C@H]3[C@H]1C5 | > | 10000 |
| CC(C)C(=O)Oc1ccc2c3c1O[C@H]1[C@@H](OS(=O)(=O)O)C=C[C@H]4[C@@H](C2)N(C)CC[C@@]341 | = | 584 |
| C[N+]1(C)CC[C@]23c4c5ccc(OC(=O)c6ccccc6)c4O[C@H]2[C@@H](OS(=O)(=O)[O-])C=C[C@H]3[C@H]1C5 | > | 10000 |
| COc1ccc2c3c1O[C@H]1[C@@H](OS(=O)(=O)O)CC[C@H]4[C@@H](C2)N(C)CC[C@@]341 | = | 1150 |
| CC(=O)Oc1ccc2c3c1O[C@H]1[C@@H](OS(=O)(=O)O)CC[C@H]4[C@@H](C2)N(C)CC[C@@]341 | = | 325 |
| CC(=O)Oc1ccc2c3c1O[C@H]1[C@@H](OS(=O)(=O)[O-])C=C[C@H]4[C@@H](C2)[N+](C)(C)CC[C@@]341 | = | 842 |
